target: Cyclin-dependent kinase 2 (Homo sapiens); assay: Inhibitory concentration against cyclin-dependent kinase 2
pIC50: −log10 of the molar value.
Think of 8 as a floor: if pIC50 stands on it or above, it is true (1); beneath it, false (0).

c1ccc(Nc2nccc(-c3cnc4ccccn34)n2)cc1 = true (1)

Input: Entry COCCCNS(=O)(=O)c1ccc(Nc2nccc(-c3cnc4ccccn34)n2)cc1 : is its pIC50 no less than 8?
Output: true (1)

Input: Entry CN(C)CCCNS(=O)(=O)c1ccc(Nc2nccc(-c3cnc4ccccn34)n2)cc1 : is its pIC50 no less than 8?
Output: true (1)

Input: Entry COCCNS(=O)(=O)c1ccc(Nc2ncc(Cl)c(-c3cnc4ccccn34)n2)cc1 : is its pIC50 no less than 8?
Output: true (1)

Input: Entry Cc1nc2ccccn2c1-c1ccnc(Nc2cccc(Cl)c2)n1 : is its pIC50 no less than 8?
Output: false (0)

Input: Entry CNS(=O)(=O)c1ccc(Nc2nccc(-c3cnc4ccccn34)n2)cc1 : is its pIC50 no less than 8?
Output: true (1)

From: ChEMBL document CHEMBL1147565
